# experimental-protocol: Phase I study CXR1002-001: plasma pharmacokinetics (LC-MS/MS)
# Format: in vivo, human
# measurement-context: human, plasma, oral, 300 mg, Patient 014 Dose 300 mg; 676 hr; read-out: Concentration
readout: concentration at 676 h
Answer with the figure and its unit, nothing else.

Determine its reported concentration at 676 h: O=C(O)C(F)(F)C(F)(F)C(F)(F)C(F)(F)C(F)(F)C(F)(F)C(F)(F)F [CXR1002] 411 µM

====

# experimental-protocol: Phase I study CXR1002-001: plasma pharmacokinetics (LC-MS/MS)
# Format: in vivo, human
# measurement-context: human, plasma, oral, 100 mg, Patient 005 Dose 100 mg; 508 hr; read-out: Concentration
readout: concentration at 508 h (µM)
Respond with the bare value in µM.

Look up concentration at 508 h of O=C(O)C(F)(F)C(F)(F)C(F)(F)C(F)(F)C(F)(F)C(F)(F)C(F)(F)F [CXR1002] and report it. 87.4
